System: Candida albicans
Assay: CLSI broth microdilution MIC (Example 5)
Assay type: cell-based
Details: clinical isolate C. albicans 16-90050810
Attribute Measured: MIC (µg/mL)
I only need the number, in µg/mL, no unit after it.

Sample answers from the record:
Prompt line: Using the record for Cl.N=C(NN=Cc1cc(O)c(O)c(O)c1)NN=Cc1cc(O)c(O)c(O)c1 [NCL097] , state its measured MIC.
Response line: 8

Prompt line: Provide MIC value for the following compound: C[C@@H]1[C@H](O)[C@@H](C)/C=C/C=C/C=C/C=C/C=C/C=C/C=C/[C@H](O[C@@H]2O[C@H](C)[C@@H](O)[C@H](N)[C@@H]2O)C[C@@H]2O[C@](O)(C[C@@H](O)C[C@@H](O)[C@H](O)CC[C@@H](O)C[C@@H](O)CC(=O)O[C@H]1C)C[C@H](O)[C@H]2C(=O)O [Amphotericin B, reference compound]
Response line: 0.125

Proceeding to the next compound to report its MIC.
Prompt line: Provide one value: measured MIC of Cc1ccc(/C=N/Nc2cc(N/N=C/c3ccc(C)cc3)nc(N)n2)cc1 [NCL195]
Response line: 4

* * *

Tested on: C. gattii
Assay: CLSI broth microdilution MIC (Example 6)
Type: cell-based, Cryptococcus gattii
Details: human clinical isolate C. gattii 16-90050373
Recorded MIC for the following compounds

Prompt line: Give MIC; test system C. gattii; compound C/C(=N\NC(=N)N/N=C(\C)c1ccc(C(C)(C)C)cc1)c1ccc(C(C)(C)C)cc1.Cl
Response line: >32 µg/mL

New cases:
Prompt line: Output reported MIC of the compound CN(C)c1ccc(/C=N/NC(=N)N/N=C/c2ccc(N(C)C)cc2)cc1.Cl on C. gattii.
Response line: 2 to 4 µg/mL

Prompt line: Please report the measured MIC for Nc1nc(NN=Cc2ccc(F)cc2)cc(NN=Cc2ccc(F)cc2)n1 tested on C. gattii.
Response line: >32 µg/mL

Prompt line: Answer with MIC of COc1ccc(C=NNC(=N)NN=Cc2ccc(OC)c(OC)c2)cc1OC.Cl measured for C. gattii.
Response line: >32 µg/mL

* * *

In this section we review reported MIC at 24-48 hours values for a set of compounds.
Tested on: Cryptococcus neoformans
Assay: CLSI broth microdilution MIC (Example 4)
Assay type: cell-based
Settings: Cryptococcus neoformans SA2

Example entries and their recorded answers appear below.
Prompt line: Provide one value: measured MIC at 24-48 hours of Clc1ccc(C=NNc2cc(NN=Cc3ccc(Cl)cc3)ncn2)cc1
Response line: >32 µg/mL

Prompt line: Please give the documented MIC at 24-48 hours of Cl.N=C(NN=CC1CCCCC1)NN=CC1CCCCC1
Response line: >32 µg/mL

More entries:
Prompt line: Using the record for Clc1ccc(/C=N/CC/N=C/c2ccc(Cl)cc2)cc1 , state its measured MIC at 24-48 hours.
Response line: >32 µg/mL

* * *

Listing: MIC of selected molecules
Test system: Candida albicans
Experiment: CLSI broth microdilution MIC (Example 5)
Assay type: cell-based
Conditions: clinical isolate C. albicans 16-90054237
Respond numerically; units are µg/mL and should not be typed.

Prompt line: Please look at this molecule and report its MIC: [H]/N=C(\N)NN=C(CCCCCC)c1ccc(Cl)cc1
Response line: 16

Prompt line: Provide MIC value for the following molecule: Cl.N=C(NN=Cc1cccc(F)c1)NN=Cc1cccc(F)c1
Response line: 16
